PROCEDURE SUMMARY: inhibition of PAO1 biofilm formation – strain PAO1, LB-PBS medium, absorbance 600 nm, primary screen (AID 1176); further: test concentration not given here
APPLIED CONDITIONS: P. aeruginosa PAO1 growth/biofilm, A600, 12 h; higher = more signal
Respond with true for z-score values of 0 and above, false for values below.

[
  {
    "COMPOUND": "C=C[C@H](C)[C@H](OC(=O)Nc1ccc(OC)cc1)c1ccc(O)c2ccccc12",
    "CATEGORY": "true"
  },
  {
    "COMPOUND": "CC(C)C[C@@H]1NC(=O)[C@@H]2C[C@H](C(=O)NCCCCN(C)C)[C@H](c3ccc(O)cc3)N2C1=O",
    "CATEGORY": "false"
  },
  {
    "COMPOUND": "O=C1OCC=C[C@H]2OC34C=CCN(CCN5CCOCC5)C(=O)[C@H]3N(CCCCCCO)C(=O)[C@@H]4[C@@H]12 (stereo partly drawn)",
    "CATEGORY": "false"
  },
  {
    "COMPOUND": "Cc1ccc(S(=O)(=O)N2CC(C(=O)O)=CCC2c2ccccc2)cc1 (stereo not drawn)",
    "CATEGORY": "true"
  },
  {
    "COMPOUND": "Cc1cccc(/C=C/C=O)c1",
    "CATEGORY": "true"
  },
  {
    "COMPOUND": "CCN(CC)c1ccc(N2CC=CC34O[C@@H]5C=CCCOC(=O)C5[C@H]3C(=O)N(CCCO)[C@@H]4C2=O)cc1 (stereo partly drawn)",
    "CATEGORY": "true"
  },
  {
    "COMPOUND": "CC(=O)n1cc(C(O)C2C=CC3C(=O)N(c4ccccc4)C(=O)C3N2Nc2ccc(C#N)cc2)c2ccccc21 (stereo not drawn)",
    "CATEGORY": "true"
  }
]
